biological target: zinc-induced Aβ42 aggregates (Homo sapiens, UniProt P05067); construct: 15 μM Aβ42 peptide in TrisHCl—NaCl buffer; assay: Bis-ANS fluorescence assay of disaggregation of zinc-induced Aβ42 aggregates; conditions: Aβ42 15 μM, bis-ANS 15 μM, Tris-buffered saline, with 15 μM Zn2+
Sequence (P05067 672-713 limits assumed): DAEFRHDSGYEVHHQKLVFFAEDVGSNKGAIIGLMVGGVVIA
measure name: pEC50
FYI, pEC50 means -log10 of a concentration in mol per litre.

// returns reported pEC50 for input N#CC(=Cc1ccc2cc(-c3ccc(N(c4ccccc4)c4ccccc4)cc3)oc2c1)C(=O)O [BC-149]
6.18

// returns reported pEC50 for input N#CC(=Cc1ccc2oc(-c3ccc(N(c4ccccc4)c4ccccc4)cc3)cc2c1)C(=O)O [BC-151]
5.31

// returns reported pEC50 for input N#CC(=Cc1ccc(-c2cc3ccc(N(c4ccccc4)c4ccccc4)cc3o2)cc1)C(=O)O [BC-147]
5.42

---

target: amylin aggregates (Homo sapiens, UniProt P10997); construct: Amylin (15 μM) in TrisHCl—NaCl buffer was allowed to aggregate for 24 hr; test: Bis-ANS fluorescence assay of disaggregation of amylin aggregates; conditions: 15 μM amylin, bis-ANS 15 μM, Tris-buffered saline, compound added after 24 hr aggregation
Sequence (P10997 34-70 limits assumed): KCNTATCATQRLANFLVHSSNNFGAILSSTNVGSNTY
In this section we review reported log10 EC50 values for a set of compounds.
Base-10 log of EC50, unit nM.

1) COc1ccc(N(c2ccc(OC)cc2)c2ccc(-c3cc4ccc(C=C(C#N)C(=O)O)cc4o3)cc2)cc1 : 2.49
2) N#CC(=Cc1cc2ccc(N(c3ccccc3)c3ccccc3)cc2o1)C(=O)O : 2.72
3) N#CC(=Cc1ccc(-c2cc3ccc(N(c4ccccc4)c4ccccc4)cc3o2)cc1)C(=O)O : 2.28

// returns reported log10 EC50 for input N#CC(=Cc1ccc2cc(-c3ccc(N(c4cccnc4)c4cccnc4)cc3)oc2c1)C(=O)O
3.29

// returns reported log10 EC50 for input N#CC(=Cc1ccc2cc(-c3ccc(N(c4ccccc4)c4ccccc4)cc3)oc2c1)C(=O)O
2.18

// returns reported log10 EC50 for input NC(=O)C(=Cc1ccc2cc(-c3ccc(N(c4ccccc4)c4ccccc4)cc3)oc2c1)C(N)=O
2.26
